- System: σ receptors
- Method Notes: Radioligand binding assay, σ receptors
- Settings: rat cerebral cortex, [3H]DTG 8 nM
Endpoint Label: σ [%] (%)
Your answer should be a plain number; it is taken to be in %.

compound="O=S(=O)(NC1CN(CCOc2cccc3[nH]ccc23)C1)c1cccc(Cl)c1 [Compound 47]" unit_info=% value_measured=44

Value sought: σ [%], system σ receptors, item Cc1cccc(S(=O)(=O)NC2CN(CCOc3cccc4c3OCCO4)C2)c1 [Compound 93] . Result: 35

Observed σ [%], σ receptors, O=S(=O)(NCC1CCN(CCCc2noc3cc(F)ccc23)C1)c1cccc2ccccc12 (stereo not shown) [Compound 239] : 97

Entry O=S(=O)(NC1CCN(CCCc2noc3cc(F)ccc23)C1)c1ccc2cc(Cl)ccc2c1 (stereo not shown) [Compound 23] ; assay system σ receptors; σ [%] recorded at 61
